Reference for the values: the kinase profiling compilation of Christmann-Franck et al. (2016)

molecular target: CAMK1G (human); experiment: radiometric filter-binding kinase assay, Kinase HotSpot; conditions: compound 0.5 µM; ATP 10 µM
QUANTITY NAME: residual activity (%)

- SMILES: "O=C1Nc2ccc(Cl)cc2/C1=C/c1cc(Cl)c(O)c(Cl)c1"
  MEASURED RESULT: 96.6
- SMILES: "Nc1ncnc2[nH]nc(Nc3ccc(F)cc3)c12"
  MEASURED RESULT: 97.2
- SMILES: "Cc1ccc(NC2=CC(=O)c3sc(C)nc3C2=O)cc1"
  MEASURED RESULT: 95
- SMILES: "CCC(=O)Nc1ccc2ncnc(Nc3cccc(Br)c3)c2c1"
  MEASURED RESULT: 92.1
- SMILES: "COc1ccc(COc2ccc(Cc3cnc(N)nc3N)cc2OC)cc1"
  MEASURED RESULT: 98.3
- SMILES: "CNC(=O)c1cc(Oc2ccc(NC(=O)Nc3ccc(Cl)c(C(F)(F)F)c3)cc2)ccn1"
  MEASURED RESULT: 107
- SMILES: "CCN(CC)CCNC(=O)c1c(C)[nH]c(/C=C2\\C(=O)Nc3ccc(Cl)cc32)c1C"
  MEASURED RESULT: 49.5
- SMILES: "N#CC(C#N)=C(N)/C(C#N)=C/c1ccc(O)cc1"
  MEASURED RESULT: 104
- SMILES: "Nc1ncnc2c1c(-c1ccc(Oc3ccccc3)cc1)cn2C1CCCC1"
  MEASURED RESULT: 95.8
- SMILES: "CC(C)N(CCC(=O)c1ccc2ccccc2c1)Cc1ccccc1"
  MEASURED RESULT: 95.1
- SMILES: "O=C1NC(=O)/C(=C/c2ccc3c(c2)OC(F)(F)O3)S1"
  MEASURED RESULT: 107
- SMILES: "CCCC(=O)Oc1ccc2[nH]c(C(=O)c3cc4ccccc4[nH]3)cc2c1"
  MEASURED RESULT: 100
- SMILES: "Cc1[nH]c(/C=C2\\C(=O)Nc3ccc(S(=O)(=O)N(C)c4cccc(Cl)c4)cc32)c(C)c1C(=O)N1CCN(C)CC1"
  MEASURED RESULT: 92.5
- SMILES: "O=C1NC(=O)c2c1c1c3ccccc3n3c1c1c2c2ccccc2n1C1CCC3O1"
  MEASURED RESULT: 56.5
- SMILES: "O=c1cc(N2CCOCC2)oc2c1ccc1ccccc12"
  MEASURED RESULT: 102
- SMILES: "CCN(CC)C(=O)c1ccc(Nc2nc(OCC3CCCCC3)c3nc[nH]c3n2)cc1"
  MEASURED RESULT: 96.1
- SMILES: "O=S(=O)(c1cccc2cnccc12)N1CCCNCC1"
  MEASURED RESULT: 101
- SMILES: "N#C/C(=C(/N)Sc1ccc(N)cc1)c1ccccc1C(F)(F)F"
  MEASURED RESULT: 96.6
- SMILES: "O=C1NC(=O)C(c2cn(CCCn3ccnc3)c3ccccc23)=C1Nc1ccccc1"
  MEASURED RESULT: 84.6
